Biological target: Transcriptional activator protein TraR (Agrobacterium tumefaciens, UniProt P33905)
Sequence (P33905 whole entry): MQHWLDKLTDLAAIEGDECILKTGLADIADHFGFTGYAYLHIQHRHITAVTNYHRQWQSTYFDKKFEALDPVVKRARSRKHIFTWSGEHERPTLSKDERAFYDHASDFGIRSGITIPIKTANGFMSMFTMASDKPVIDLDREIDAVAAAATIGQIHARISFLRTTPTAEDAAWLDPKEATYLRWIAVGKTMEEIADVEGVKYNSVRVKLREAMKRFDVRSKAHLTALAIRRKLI
Assay: Antagonist activity at Agrobacterium tumefaciens WCF47 TraR receptor assessed as inhibition of OOHL-induced response by beta-galctosidase reporter gene assay
Record form. Attribute: pIC50. Fill in for each entry.
Would you please state pIC50, meaning minus log10 of the concentration in mol/L, as a bare number?

Q: Which pIC50 is listed for "O=C(Cc1ccc(I)cc1)N[C@H]1CCOC1=O" ?
A: 5.90

Q: And "O=C(COc1ccc(Br)cc1)N[C@H]1CCOC1=O" ?
A: 6.29

Q: And "O=C(Cc1ccc(Cl)c(Cl)c1)N[C@H]1CCOC1=O" ?
A: 5.62

Q: And "O=C(CCc1ccc([N+](=O)[O-])cc1)N[C@H]1CCOC1=O" ?
A: 5.80

Q: And "O=C(CCc1ccc(C(F)(F)F)cc1)N[C@H]1CCOC1=O" ?
A: 6.68

Q: And "CSc1ccc(CC(=O)N[C@H]2CCOC2=O)cc1" ?
A: 5.08

Q: And "Cc1cccc(OCC(=O)N[C@H]2CCOC2=O)c1" ?
A: 5.96

Q: And "O=C(CCc1ccc(I)cc1)N[C@H]1CCOC1=O" ?
A: 5.68

Q: And "O=C(Cc1ccc([N+](=O)[O-])cc1)N[C@H]1CCOC1=O" ?
A: 5.65

Q: And "CSc1ccc(CCC(=O)N[C@H]2CCOC2=O)cc1" ?
A: 5.96

Q: And "O=C(Cc1ccc2ccccc2c1)N[C@H]1CCOC1=O" ?
A: 5.38

Q: And "COc1ccc(OCC(=O)N[C@H]2CCOC2=O)cc1" ?
A: 5.37

Q: And "Cc1ccc(OCC(=O)N[C@H]2CCOC2=O)cc1" ?
A: 5.74

Q: And "O=C(CCc1ccc(Cl)cc1)N[C@H]1CCOC1=O" ?
A: 5.48

Q: And "O=C(Cc1ccc(SC(F)(F)F)cc1)N[C@H]1CCOC1=O" ?
A: 5.33

Q: And "O=C(COc1ccc(Cl)cc1)N[C@H]1CCOC1=O" ?
A: 6.21

Q: And "O=C(COc1ccc(I)cc1)N[C@H]1CCOC1=O" ?
A: 6.36

Q: And "O=C(COc1ccc(C(F)(F)F)cc1)N[C@H]1CCOC1=O" ?
A: 5.80

Q: And "O=C(COc1ccc([N+](=O)[O-])cc1)N[C@H]1CCOC1=O" ?
A: 6.54

Q: And "O=C(COc1ccc(F)cc1)N[C@H]1CCOC1=O" ?
A: 5.57
